Cited source for all entries: patent US20220298218A1

- system.under.test: T1, human GIP receptor (human, UniProt P48546 22-466)
- T1 sequence (looked up): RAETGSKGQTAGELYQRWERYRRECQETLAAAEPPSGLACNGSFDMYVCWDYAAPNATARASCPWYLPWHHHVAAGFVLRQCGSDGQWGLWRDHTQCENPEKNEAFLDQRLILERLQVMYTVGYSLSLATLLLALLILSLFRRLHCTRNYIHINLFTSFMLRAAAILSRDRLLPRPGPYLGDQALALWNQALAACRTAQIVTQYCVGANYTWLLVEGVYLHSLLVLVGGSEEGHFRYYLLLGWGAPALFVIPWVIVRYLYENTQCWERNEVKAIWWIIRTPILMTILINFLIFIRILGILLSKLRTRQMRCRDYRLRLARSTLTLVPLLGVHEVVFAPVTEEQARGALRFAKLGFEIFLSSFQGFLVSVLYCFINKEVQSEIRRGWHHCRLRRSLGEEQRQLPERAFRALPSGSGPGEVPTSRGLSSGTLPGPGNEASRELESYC
- test.details: cell-based or functional assay
*1 amine or outer side, *2 acyl side, *3 side chain or, on linkers, in order; H or OH if unused. Where no end group is shown, it is not given here. Side-chain parts run from the residue outwards. [ ]: non-standard residue; d: D form. The star is where a group is joined. C18 diacid = O=C(O)CCCCCCCCCCCCCCCCC(=O)*; γGlu = O=C(O)[C@H](CCC(=O)[*:2])N[*:1]; Nle = CCCC[C@H](N)C(=O)O; PEG = not defined here; AEEA = NCCOCCOCC(=O)O
Provide the recorded cAMP antagonism % inhib for the entries that follow.
One number for each entry, in %.

Worked cases, cAMP antagonism % inhib given:
* TFISDYK([PEG-PEG-γGlu-C18 diacid])IAMDKIHQQDFVNWLLAQKPSSGAPPPS-NH2 (reading uncertain; also: 2xPEG: PEG unit not given here) [AT597] | 81
* EGTFISDYSIALDKIKQQDFVNWLLAQKPSSGAPPPS (Nle at 14; K18: C16-diacid; C-term COOH) [AT619] | 87

Next, consider the following binder.
Input: Query: cAMP antagonism % inhib; subject: EGTFISDYSIA[Nle]DKIK([AEEA-AEEA-γGlu-C18 diacid])QQDFVEWLLAQKPSSGAPPPS-OH [AT683]
Output: 93
